Please consider the recorded Ki for UniProtKB P21554 in what follows.
Sequence (P21554 whole entry): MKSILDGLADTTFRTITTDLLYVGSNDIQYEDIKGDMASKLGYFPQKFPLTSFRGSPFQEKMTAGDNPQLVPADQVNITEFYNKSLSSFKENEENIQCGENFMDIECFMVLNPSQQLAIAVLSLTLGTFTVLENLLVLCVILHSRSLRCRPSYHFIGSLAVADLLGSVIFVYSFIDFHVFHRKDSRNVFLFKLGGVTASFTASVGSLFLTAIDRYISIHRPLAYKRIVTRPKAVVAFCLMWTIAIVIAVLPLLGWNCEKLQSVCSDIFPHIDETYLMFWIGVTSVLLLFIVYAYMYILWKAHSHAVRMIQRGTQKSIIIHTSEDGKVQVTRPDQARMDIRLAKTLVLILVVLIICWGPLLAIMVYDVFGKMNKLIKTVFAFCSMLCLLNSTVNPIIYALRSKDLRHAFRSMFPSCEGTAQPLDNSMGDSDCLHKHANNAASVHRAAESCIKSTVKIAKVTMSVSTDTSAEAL

{"smilesRepresentation": "CCCCCCC(C)(C)c1ccc2c(c1)OC(C)(C)[C@@H]1CC=C(CO)C[C@@H]21", "assayedTarget": "UniProtKB P21554", "Ki": "1.2 nM"}

Now look at this one.
Lookup: Write down measured Ki (UniProtKB P21554) for this compound. CCCCCCC(C)(C)c1ccc2c(c1)OC(C)(C)[C@@H]1CC=C(C)C[C@@H]21
Found: 23 nM

====

Parameter pEC50: see the listing below.
biological target: Cannabinoid receptor 2 (Homo sapiens, UniProt P34972); experiment: Agonist activity at human CB2 receptor expressed in CHO cells assessed as stimulation of [35S]GTPgammaS binding after 1.5 hrs by liquid scintillation spectrophotometry
Sequence (P34972 whole entry): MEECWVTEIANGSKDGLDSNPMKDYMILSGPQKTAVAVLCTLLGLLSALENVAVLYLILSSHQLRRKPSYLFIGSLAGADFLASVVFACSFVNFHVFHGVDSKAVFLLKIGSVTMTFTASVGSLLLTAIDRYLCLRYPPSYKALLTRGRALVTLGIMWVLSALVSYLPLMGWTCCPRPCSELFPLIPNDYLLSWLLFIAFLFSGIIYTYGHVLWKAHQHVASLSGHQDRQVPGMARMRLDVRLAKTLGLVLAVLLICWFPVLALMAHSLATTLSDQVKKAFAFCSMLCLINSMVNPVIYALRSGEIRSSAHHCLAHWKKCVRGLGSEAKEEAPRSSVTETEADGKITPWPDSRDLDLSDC
Kindly note that pEC50 refers to -log10 of the concentration in mol/L and answer with the value alone.

// known answers, use as guide
{"smilesRepresentation": "CCCC(C)(C)c1ccc2c(c1)OC(C)(C)[C@@H]1CC=C(C)C[C@@H]21", "observable": "pEC50", "recordedNumber": 8.40}
{"smilesRepresentation": "CCCCCCC(C)(C)c1cc(Br)c2c(c1)OC(C)(C)[C@@H]1CC=C(C)C[C@@H]21", "observable": "pEC50", "recordedNumber": 7.82}

Now for another entry.
Lookup: Read the entry CCCCCC(C)(C)c1cc(Br)c2c(c1)OC(C)(C)[C@@H]1CC=C(C)C[C@@H]21 and write its reported pEC50.
Found: 7.54
